biological target: RfLacA (Reticulitermes flavipes); assay: RfLacA substrate specificity and kinetic parameters; details: RfLacA; 1 mM substrate
Sequence (D0E8H0 entry or part of it): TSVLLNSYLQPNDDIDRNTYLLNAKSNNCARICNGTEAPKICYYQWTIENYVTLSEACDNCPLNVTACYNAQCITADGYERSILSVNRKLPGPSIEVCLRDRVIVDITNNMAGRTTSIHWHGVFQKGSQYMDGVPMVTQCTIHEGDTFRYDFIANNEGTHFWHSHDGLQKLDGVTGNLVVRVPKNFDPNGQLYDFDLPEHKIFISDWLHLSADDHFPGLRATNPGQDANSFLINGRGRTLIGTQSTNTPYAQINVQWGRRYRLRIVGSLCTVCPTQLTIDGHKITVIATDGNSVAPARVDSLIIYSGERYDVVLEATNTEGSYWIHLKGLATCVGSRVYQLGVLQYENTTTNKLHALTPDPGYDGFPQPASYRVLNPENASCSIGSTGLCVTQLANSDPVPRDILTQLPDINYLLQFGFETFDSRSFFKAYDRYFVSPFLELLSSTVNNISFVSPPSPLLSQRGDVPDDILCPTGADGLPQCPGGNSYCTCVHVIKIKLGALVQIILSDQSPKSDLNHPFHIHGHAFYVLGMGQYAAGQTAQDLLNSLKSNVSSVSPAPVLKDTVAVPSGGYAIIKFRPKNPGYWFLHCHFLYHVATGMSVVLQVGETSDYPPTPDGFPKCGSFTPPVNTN
Items are presented alongside their recorded Specific Activity at 1 mM [S].
Note: unit nmol·min/mg is implicit; provide only the numeric part.

>>> recorded_result("CC(=O)NCCc1ccc(O)c(O)c1 [NADA]")
0.760
>>> recorded_result("N[C@@H](Cc1ccc(O)c(O)c1)C(=O)O [L-DOPA]")
0.676
>>> recorded_result("COc1cc(/C=C/C(=O)O)cc(OC)c1O [Sinapinic Acid]")
3.383
>>> recorded_result("Oc1ccccc1O [Pyrocatechol]")
2.315
>>> recorded_result("NCCC(=O)NCCc1ccc(O)c(O)c1 [NBAD]")
0.190

Supply recorded Specific Activity at 1 mM [S] for COc1cccc(OC)c1O [2,6-DMP, 2,6-dimethoxyphenol] here.
2.146

Supply recorded Specific Activity at 1 mM [S] for Oc1cccc(O)c1O [Pyrogallol] here.
1.482
